assay-system: human GR (Homo sapiens, UniProt P04150)
Construct: naturally expresses the human GR; endogenous in cells
Sequence (P04150 1-777): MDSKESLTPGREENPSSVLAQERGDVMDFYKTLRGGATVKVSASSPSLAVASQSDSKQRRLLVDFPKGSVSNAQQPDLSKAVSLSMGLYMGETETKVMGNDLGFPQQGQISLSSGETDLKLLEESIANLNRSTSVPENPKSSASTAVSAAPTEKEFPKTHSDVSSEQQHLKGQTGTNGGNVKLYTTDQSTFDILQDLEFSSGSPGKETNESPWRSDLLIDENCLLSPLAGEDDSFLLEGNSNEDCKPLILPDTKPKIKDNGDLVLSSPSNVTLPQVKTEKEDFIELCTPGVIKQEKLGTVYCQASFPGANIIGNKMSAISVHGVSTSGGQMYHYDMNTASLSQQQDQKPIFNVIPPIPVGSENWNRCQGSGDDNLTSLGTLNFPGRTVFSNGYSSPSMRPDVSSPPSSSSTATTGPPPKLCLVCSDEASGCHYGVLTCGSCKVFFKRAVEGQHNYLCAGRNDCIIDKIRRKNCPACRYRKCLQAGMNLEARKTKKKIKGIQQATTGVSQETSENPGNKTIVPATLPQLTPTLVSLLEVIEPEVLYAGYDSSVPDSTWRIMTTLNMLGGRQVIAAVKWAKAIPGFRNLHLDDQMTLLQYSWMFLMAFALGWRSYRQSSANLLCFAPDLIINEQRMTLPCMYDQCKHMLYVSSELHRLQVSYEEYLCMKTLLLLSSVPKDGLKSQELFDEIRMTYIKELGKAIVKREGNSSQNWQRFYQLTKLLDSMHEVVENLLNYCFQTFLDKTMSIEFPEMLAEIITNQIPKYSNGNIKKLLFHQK
assay-text: Trans-activation modulation of glucocorticoid receptor (GRAMMER), MMTV-LUC reporter in A549 cells
Format: cell-based
condition-details: A549, A549 cells; Emax relative to the activity obtained with 300 nM dexamethasone; read-out: Transactivation A549 Cells Grammer Emax (%)
reported-property: Emax (%)
Could you give me the number in %? Just the number is fine.

1. CC[C@]12Cc3cnn(-c4ccccc4)c3C=C1CC[C@@]2(O)CCc1ccc(F)cc1C(N)=O [Example 6] = 26
2. CC[C@]12Cc3cnn(-c4ccc(F)cc4)c3C=C1CC[C@@]2(O)CCc1ccccn1 [Example 16] = 31
3. CC[C@]12Cc3cnn(-c4ccc(F)cc4)c3C=C1CC[C@@]2(O)CCc1ncc(F)cc1C(N)=O [Example 53] = 49
4. CC[C@]12Cc3cnn(-c4ccc(F)cc4)c3C=C1CC[C@@]2(O)CCc1ccc(F)cn1 [Example 19] = 18

Record N#Cc1c(F)cccc1CC[C@]1(O)CCC2=Cc3c(cnn3-c3ccccc3)C[C@@]21C1CC1 [Example 28] . Reported Emax: 8

Record CC[C@]12Cc3cnn(-c4ccc(F)cc4)c3C=C1CC[C@@]2(O)CC(O)c1ccc(F)cn1 (single isomer, unassigned) [Example 69a] . Reported Emax: 33
